# Lookup of reported RP-LC retention time keyed by entry
assay: gradient 5% acetonitrile 3 min, to 50% in 2 min, to 85% in 15 min, held 3 min, 100 µL/min; details: column: Zorbax Extend-C18 2.1 x 50 mm; eluents: water / acetonitrile, 0.1% formic acid
Value and unit, in that order.

Please review the following examples before continuing.
MOLECULE | RP-LC retention time
CCN1CCn2cc(S(=O)(=O)Nc3cc(F)ccc3F)cc2C1=O | 715 s
O=C(Nc1ccc(Cl)cc1)N1CCc2nc[nH]c2C1 | 594 s

-- ask Looking for the measured RP-LC retention time of Cc1ccccc1Cc1noc(-c2nc(-c3ccc4c(c3)OCO4)no2)n1 , can you help?
-- reply 1190 s

-- ask Look up RP-LC retention time for this molecule: Cc1cccc(C(=O)N2CCc3cc(CNS(=O)(=O)Cc4ccccc4)ccc32)c1
-- reply 972 s

====

assay: gradient 5% acetonitrile 3 min, to 50% in 2 min, to 85% in 15 min, held 3 min, 100 µL/min; conditions: column: Zorbax Extend-C18 2.1 x 50 mm; eluents: water / acetonitrile, 0.1% formic acid
MEASURE_NAME: RP-LC retention time (s)
All answers are understood in s, so give the number only.

Some compounds with known RP-LC retention time results, for comparison:
COMPOUND | MEASURE_UNIT | RP-LC retention time
O=C(c1cccc(OC(F)(F)F)c1)N1C[C@@H]2C[C@H]1C[C@@H]2NS(=O)(=O)c1ccccc1 | s | 887
CC(C)Cn1cc(S(=O)(=O)N2CCSCC2)c2cccnc21 | s | 969
COc1ccc(C)cc1NC(=O)N1CCCC1c1c(C)noc1C (centres undefined) | s | 840
CCCCNC(=O)CC1CCN(C(=O)c2[nH]c(C)c(C)c2C)CC1 | s | 764
COc1ccc(-c2noc(C3CC(=O)N(c4ccc(C)cc4)C3)n2)c(OC)c1 (centres undefined) | s | 888
Cc1nn(CC(=O)NCCCN2CCOCC2)c(=O)c2c(-n3cccc3)n(-c3ccc(F)cc3)nc12 | s | 665

-- ask For the compound O=C(Nc1nnc(C2CC(=O)N(c3ccccc3)C2)o1)c1ccccn1 (centres undefined) , what RP-LC retention time is on record?
-- reply 620

-- ask Bench note: what RP-LC retention time did COc1cccc(-c2ccnc3nc(CCc4ccccc4)nn23)c1 show?
-- reply 970

-- ask Entry under review: O=C1Nc2ccccc2SC1C(=O)N1CCC(C(=O)N2CCN(c3ccccn3)CC2)CC1 (centres undefined) . Reported RP-LC retention time?
-- reply 596

-- ask Consider the compound shown here: COC(=O)c1ccc2c(=O)n(Cc3ccc(F)cc3)c(N3CCCC3)nc2c1 What is its recorded RP-LC retention time?
-- reply 1060

-- ask I'd like to know its RP-LC retention time. The compound in question is Cc1ccc(-c2noc(-c3nc(C4CC4)no3)n2)cc1
-- reply 1160

-- ask Form field: reported RP-LC retention time of c1cc(-c2noc(COC3CCCN(Cc4ccoc4)C3)n2)ccn1 (centres undefined)
-- reply 570

-- ask Which measured RP-LC retention time value corresponds to Cc1oc(C2CCN(C(=O)Nc3ccc(Cl)cc3F)CC2)nc1C(=O)N1CCCCC1 ?
-- reply 885

-- ask What RP-LC retention time value was documented for this compound, COCCNC(=O)c1ccc2c(c1)CCCN2C(=O)c1ccc(Cl)cc1 ?
-- reply 752

-- ask GET /values?readout=RP-LC retention time&item= CCN1CCN(c2cc(C)c3cc(NC(=O)c4ccc([N+](=O)[O-])c(C)c4)ccc3n2)CC1
-- reply 621

-- ask Quick one: RP-LC retention time of Cc1cc(=O)n(CC(=O)NCc2ccccc2)c(N2CCCCC2)n1 ?
-- reply 652

====

RP-LC retention time: recorded values
test: gradient 5% acetonitrile 3 min, to 50% in 2 min, to 85% in 15 min, held 3 min, 100 µL/min; conditions: column: Zorbax Extend-C18 2.1 x 50 mm; eluents: water / acetonitrile, 0.1% formic acid
Give just the number in s; leave the unit off.

COMPOUND | MEASURE_NAME | MEASURE_UNIT | VALUE_MEASURED
CCOC(=O)c1ccc(NC(=O)c2csc(-c3cn(C)c4ncccc34)n2)cc1 | RP-LC retention time | s | 826
CCCNS(=O)(=O)c1ccc(Cl)c(-c2nnc(-c3ccc(OC)cc3)o2)c1 | RP-LC retention time | s | 1010
CN(C)CCNC(=O)c1cc2cc(S(=O)(=O)N(C)C)ccc2n1Cc1ccccc1 | RP-LC retention time | s | 674
Cn1c(=O)c(N2CCC(NC(=O)Nc3ccc(F)c(Cl)c3)CC2)nc2ccccc21 | RP-LC retention time | s | 971
Cc1cccc(-c2nnc(Cc3nc(-c4cccs4)no3)o2)c1 | RP-LC retention time | s | 979
COc1cccc(CCC(=O)NC2(c3nc(C)no3)CCCCC2)c1 | RP-LC retention time | s | 856

-- ask Need RP-LC retention time, item N#Cc1ccc(CN2CCC(F)(F)C(COCc3cccnc3)C2)cc1 (stereo not given)
-- reply 575

-- ask Requested field: RP-LC retention time. Item: COc1ccc(-c2noc(-c3nc(-c4ccccn4)no3)n2)cc1
-- reply 966

-- ask Value lookup for RP-LC retention time; key = Cc1nc(-c2cccc(C(=O)N3CCCc4ccccc43)c2)no1
-- reply 900

-- ask Name the recorded RP-LC retention time for C=CCN1CC[C@]2(C)c3cc(O)ccc3CC1[C@@H]2C .
-- reply 594

====

test: gradient 5% acetonitrile 3 min, to 50% in 2 min, to 85% in 15 min, held 3 min, 100 µL/min; conditions: column: Zorbax Extend-C18 2.1 x 50 mm; eluents: water / acetonitrile, 0.1% formic acid
The following molecules are shown together with reported RP-LC retention time values.
Write the value in s as a bare number.

-- ask What value of RP-LC retention time has been recorded for this entry: O=C1NCCN2CC3(CCN(S(=O)(=O)Cc4ccccc4)CC3)CC12 (stereo not given)
-- reply 594

-- ask Which RP-LC retention time is listed for CN(c1cccc(NC(=O)C2CCN(S(=O)(=O)Cc3ccccc3)CC2)c1)S(C)(=O)=O ?
-- reply 806

-- ask I would be grateful if you could share the reported RP-LC retention time for Cc1cc(OCC(=O)Nc2ccccc2C(F)(F)F)nc(N2CCCC(C)C2)n1 (stereo not given) .
-- reply 734

-- ask Which RP-LC retention time is reported for this molecule? COc1ccc(-c2nnc(COc3cccc(NC(=O)CNC(=O)Cc4ccccc4)c3)o2)cc1
-- reply 816

-- ask Looking for the measured RP-LC retention time of CCCn1cc(C(=O)NCCCN(C)C)c(S(=O)(=O)N2CCN(c3ccc(Cl)cc3)CC2)n1 , can you help?
-- reply 757

====

test: gradient 5% acetonitrile 3 min, to 50% in 2 min, to 85% in 15 min, held 3 min, 100 µL/min; conditions: column: Zorbax Extend-C18 2.1 x 50 mm; eluents: water / acetonitrile, 0.1% formic acid
Using RP-LC retention time as the sorting value, the categories are LOW: < 700 s; MID: ≥ 700 s and < 800 s; HIGH: ≥ 800 s

MOLECULE | ANSWER_LABEL
Cc1ccc(NC(=O)Nc2ccc3nc(N4CCN(C)CC4)cc(C)c3c2)cc1C | LOW

-- ask Hi there! Could you help me figure out the category for CCN1C(=O)COc2ccc(-c3noc(-c4ccc(CS(=O)(=O)c5ccc(C)cc5)cc4)n3)cc21 please?
-- reply HIGH

-- ask Hey, which category is CC(C)Cn1cc(S(=O)(=O)Nc2ccccc2Cl)c2cccnc21 in, do you know?
-- reply HIGH

-- ask Into which category would you place CC(C)c1cc(=O)n(CC(=O)NCCn2nc(-c3cccs3)ccc2=O)cn1 ?
-- reply LOW

-- ask Please classify: CCCCNC(=O)c1ccc2nc(CCc3ccc(NC(=O)CC)cc3)[nH]c2c1
-- reply LOW

-- ask Which class is correct for the following molecule? Cc1nc2cccnc2n1CCN1CCN(C(=O)Nc2cccc(Cl)c2)CC1
-- reply LOW

-- ask Form field 'band' for Cc1ccn2cc(C(=O)NCCCN3CCCC3=O)nc2c1
-- reply LOW

====

assay: gradient 5% acetonitrile 3 min, to 50% in 2 min, to 85% in 15 min, held 3 min, 100 µL/min; details: column: Zorbax Extend-C18 2.1 x 50 mm; eluents: water / acetonitrile, 0.1% formic acid
MEASURE_NAME: RP-LC retention time (s)
The answer is to be given in s; state only the numeric part.

The examples below pair each entry with its known result.
COMPOUND | RP-LC retention time, s
C[C@H]1CN(C(=O)Nc2ccc(F)cc2F)C[C@@H]1c1nc(-c2cccnc2)no1 | 770
COC(=O)C1CCN(c2ccnc3c2c(=O)n(C)c(=O)n3C)CC1 | 660
Cc1cc(NC(=O)N2C[C@@H](F)C[C@H]2C(=O)N2CCCCC2)ccc1Br | 824
COc1ccc(/C=C/c2ccc3c(c2)OCCO3)cc1O | 868
Cc1ccc(NC(=O)Cn2cnc3nc(N4CCCC(C(=O)NC(C)C)C4)sc3c2=O)cc1 (stereo not drawn) | 711
O=C(CCC1CCCN(S(=O)(=O)c2cccc(F)c2)C1)NCC1CC1 (stereo not drawn) | 822

-- ask # get_value(readout='RP-LC retention time', item= O=C(COc1ccc(F)cc1)N1CC(Oc2cccc(-c3nc(-c4ccccc4)no3)c2)C1 )
-- reply 1190

-- ask RP-LC retention time lookup needed for O=C(c1ccc(N2CCN(c3ncccn3)CC2)nn1)N1CCc2ccccc21 , thanks.
-- reply 784

-- ask Need RP-LC retention time of CCn1nc2ccc(S(=O)(=O)N3CCCCC3)cn2c1=O , thanks.
-- reply 744

-- ask Please give the measured RP-LC retention time for this compound: CC(C)Cn1ccc2c(cc(C(=O)NCc3cccc(Br)c3)n2C)c1=O
-- reply 901

-- ask Look at this compound and give its reported RP-LC retention time. Cc1nn(C)cc1CN1CCC[C@H]1c1nc(-c2ccccc2)n[nH]1
-- reply 580

-- ask What RP-LC retention time value was documented for this compound, CC1CCCN(c2nc(=O)n(CC(=O)Nc3ccc4c(c3)OCO4)c3ccccc23)C1 (stereo not drawn) ?
-- reply 796

-- ask RP-LC retention time lookup needed for N#Cc1cccc(NC(=O)C2CCCN(S(=O)(=O)c3cc(-c4noc(C5CCC5)n4)cs3)C2)c1 (stereo not drawn) , thanks.
-- reply 1120

-- ask I would be grateful if you could share the reported RP-LC retention time for CC1(C)CC[C@]2(C(=O)n3ccnc3)CC[C@]3(C)[C@H](C(=O)C=C4[C@@]5(C)C=C(C#N)C(=O)C(C)(C)[C@@H]5CC[C@]43C)[C@@H]2C1 .
-- reply 1260

-- ask Returns the measured RP-LC retention time for the input compound. Input: CN(CCc1noc(COc2ccc(F)cc2)n1)C(=O)Nc1ccc(Br)cc1
-- reply 980

-- ask I would be grateful if you could share the reported RP-LC retention time for CCCc1nnc(NC(=O)C2CC(=O)N(CCc3c[nH]c4ccc(Cl)cc34)C2)s1 (stereo not drawn) .
-- reply 764

-- ask Consider the compound shown here: COC(=O)c1cnn2c(C)c(Cc3ccccc3)c(C)nc12 What is its recorded RP-LC retention time?
-- reply 835

-- ask Which RP-LC retention time value is on record for Cn1c(C(=O)Nc2ccc(N3CCOCC3)cc2)cc2c1CCN(Cc1ccccc1)C2 ?
-- reply 618

-- ask Please look up its RP-LC retention time: O=C1Nc2cc(S(=O)(=O)NCCC3=CCCCC3)ccc2SC1C(=O)N1CCCC1 (stereo not drawn)
-- reply 858

-- ask RP-LC retention time lookup needed for COc1ccc(S(=O)(=O)N2CCc3nn(C)c(=O)n3CC2)cc1Cl , thanks.
-- reply 710

-- ask Could you share which RP-LC retention time value was measured for CCCn1c(-c2cccc(C(=O)NCc3ccccc3C(F)(F)F)c2)nc2cccnc21 ?
-- reply 911
